- system-under-test: 5-hydroxytryptamine receptor 3A (Mus musculus)
- Sequence (P23979 whole entry): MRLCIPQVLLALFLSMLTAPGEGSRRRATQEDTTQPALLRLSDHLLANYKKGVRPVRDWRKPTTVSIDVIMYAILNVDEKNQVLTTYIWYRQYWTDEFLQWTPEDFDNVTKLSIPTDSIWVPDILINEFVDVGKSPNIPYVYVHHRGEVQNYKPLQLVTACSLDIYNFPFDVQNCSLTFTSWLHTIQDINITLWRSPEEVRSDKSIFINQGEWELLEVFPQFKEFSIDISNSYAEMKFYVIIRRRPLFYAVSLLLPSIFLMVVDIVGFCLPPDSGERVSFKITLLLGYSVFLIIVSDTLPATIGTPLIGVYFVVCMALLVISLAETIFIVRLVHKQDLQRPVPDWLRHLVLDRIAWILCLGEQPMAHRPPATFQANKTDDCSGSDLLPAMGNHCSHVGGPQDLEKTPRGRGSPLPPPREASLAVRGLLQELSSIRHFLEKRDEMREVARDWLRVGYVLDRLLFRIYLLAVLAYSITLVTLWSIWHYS
Ki values for the molecules below.

molecule: CN1C2CCC1CC(OC(=O)c1cc(Cl)cc(Cl)c1)C2 (configuration not stated) [MDL 72222]
system-under-test: 5-hydroxytryptamine receptor 3A (Mus musculus)
Ki, nM: 13
--
molecule: Cc1nc[nH]c1CCC(=O)c1cc2ccccc2n1C [CAS_124006]
system-under-test: 5-hydroxytryptamine receptor 3A (Mus musculus)
Ki, nM: 0.21
